Let's look at some molecules and their measured Phytotoxicity corn.
- System: corn
- Protocol description: Soil treatment test for upland field (Test Example 2): phytotoxicity to corn; further: key: 0: normal growth; 1: little damaged; 2: low damaged; 3: medium damaged; 4: serious damaged; 5: complete killed
- Format: in vivo
- Reported conditions: dose 2.5 g ai/a; soil treatment before germination; examined after 3 weeks
Enter the number alone.

Recorded Phytotoxicity corn, per entry:
{"Molecule": "COC/C(=C\\c1cccc(C(F)(F)F)c1)c1nc2cc(Cl)ccc2o1 [Compound 3]", "Observable": "Phytotoxicity corn", "Recorded measurement": 0}
{"Molecule": "CCOCC(=Cc1cccc(C(F)(F)F)c1)c1nc2cc(F)c(F)cc2o1 [Compound 127]", "Observable": "Phytotoxicity corn", "Recorded measurement": 0}
{"Molecule": "CCSCC(=Cc1cccc(C(F)(F)F)c1)c1nc2cc(C(F)(F)F)ccc2o1 [Compound 84]", "Observable": "Phytotoxicity corn", "Recorded measurement": 0}
{"Molecule": "CSCC(=Cc1cccc(C(F)(F)F)c1)c1nc2cc(C(F)(F)F)ccc2o1 [Compound 82]", "Observable": "Phytotoxicity corn", "Recorded measurement": 0}
{"Molecule": "CCOCC(=Cc1cccc(C(F)(F)F)c1)c1nc2cc(C(F)(F)F)ccc2o1 [Compound 54]", "Observable": "Phytotoxicity corn", "Recorded measurement": 1}
{"Molecule": "FC(F)(F)COC/C(=C\\c1cccc(C(F)(F)F)c1)c1nc2cc(C(F)(F)F)ccc2o1 [Compound 85]", "Observable": "Phytotoxicity corn", "Recorded measurement": 0}

Q: Consider the molecule CSCC(=Cc1cccc(C(F)(F)F)c1)c1nc2cc(Cl)ccc2o1 [Compound 30] and give its measured Phytotoxicity corn.
A: 0

Q: Consider the molecule COCC(=Cc1cccc(C(F)(F)F)c1)c1nc2cc(Br)ccc2o1 [Compound 39] and give its measured Phytotoxicity corn.
A: 0

Q: Consider the molecule COCC(=Cc1cccc(C(F)(F)F)c1)c1nc2cc(C(F)(F)F)ccc2o1 [Compound 52] and give its measured Phytotoxicity corn.
A: 1

Q: Consider the molecule FC(F)C(F)(F)COCC(=Cc1cccc(C(F)(F)F)c1)c1nc2cc(C(F)(F)F)ccc2o1 [Compound 87] and give its measured Phytotoxicity corn.
A: 0

Q: Consider the molecule COCC(=Cc1ccc(Cl)c(C(F)(F)F)c1)c1nc2cc(Cl)ccc2o1 [Compound 9] and give its measured Phytotoxicity corn.
A: 1

Q: Consider the molecule COCC(=Cc1ccc(F)c(C(F)(F)F)c1)c1nc2cc(F)c(F)cc2o1 [Compound 126] and give its measured Phytotoxicity corn.
A: 0

Q: Consider the molecule CCOCC(=Cc1cccc(C(F)(F)F)c1)c1nc2cc(F)c(C(F)(F)F)cc2o1 [Compound 141] and give its measured Phytotoxicity corn.
A: 0

Q: Consider the molecule COCC(=Cc1cccc(C(F)(F)F)c1)c1nc2cc(OC(F)(F)F)ccc2o1 [Compound 46] and give its measured Phytotoxicity corn.
A: 0

Q: Consider the molecule CCOC/C(=C\c1cccc(C(F)(F)F)c1)c1nc2cc(Cl)ccc2o1 [Compound 11] and give its measured Phytotoxicity corn.
A: 1
